Origin of measurements: patent US7964625B2

Recorded measurements of Range MIC (lowest), one per entry
# System: S. aureus strains
# test protocol: MIC test on multiple strains of S. aureus
# Format: cell-based
# test settings: 60 tested S. aureus strains, lowest value found
Just so you know, I need the unit written after the number.

Recorded Range MIC (lowest), per entry:
>>> endpoint_value("Cc1ccc(-n2nnnc2C(Cl)(Cl)c2nnnn2-c2ccc(C)cc2)cc1 [NewCo002]")
"0.5 microgram/milliliter"
>>> endpoint_value("Cc1ccccc1-n1nnnc1C(Cl)(Cl)c1nnnn1-c1ccccc1C [NewCo003]")
"0.03 microgram/milliliter"
>>> endpoint_value("CN[C@H](CC(C)C)C(=O)N[C@H]1C(=O)N[C@@H](CC(N)=O)C(=O)N[C@H]2C(=O)N[C@H]3C(=O)N[C@H](C(=O)N[C@H](C(=O)O)c4cc(O)cc(O)c4-c4cc3ccc4O)[C@H](O)c3ccc(c(Cl)c3)Oc3cc2cc(c3O[C@@H]2O[C@H](CO)[C@@H](O)[C@H](O)[C@H]2O[C@H]2C[C@](C)(N)[C@H](O)[C@H](C)O2)Oc2ccc(cc2Cl)[C@H]1O [vancomycin, reference compound]")
"0.12 microgram/milliliter"
>>> endpoint_value("Clc1ccc(-n2nnnc2C(Cl)(Cl)c2nnnn2-c2ccc(Cl)cc2)cc1 [NewCo001]")
"1 microgram/milliliter"

Range MIC (lowest) measured on ClC(Cl)(c1nnnn1-c1ccccc1)c1nnnn1-c1ccccc1 [NewCo004] = 0.25 microgram/milliliter
